For each record, write down the corresponding fold change (FC).
biological target: UniProtKB P08183; test: Inhibition of human MDR1 expressed in mouse NIH/3T3 cells assessed as reduction in vinblastine IC50 at 3 uM by MTT assay; assay type: cell-based; details: nih3t3, 3 µM

Write down measured fold change (FC) (UniProtKB P08183) for this molecule. `CC(=O)O[C@H]1CC[C@](C)(OC(=O)CNCC(C)C)[C@]23OC(C)(C)[C@H]([C@H](OC(=O)/C=C/c4ccccc4)[C@H](OC(=O)c4ccccc4)[C@]12C)[C@H]3OC(C)=O`
49.1

Enter fold change (FC) (test system UniProtKB P08183) for `CC(=O)O[C@H]1CC[C@](C)(O)[C@]23OC(C)(C)[C@H]([C@H](OC(=O)/C=C/c4ccccc4)[C@H](OC(=O)c4ccccc4)[C@]12C)[C@H]3OC(=O)c1ccccc1`
33.6

Specify fold change (FC) for `CC(=O)O[C@H]1CC[C@](C)(O)[C@@]23OC(C)(C)[C@@H](C2=O)[C@H](OC(=O)/C=C/c2ccccc2)[C@H](OC(=O)c2ccccc2)[C@]13C` , system UniProtKB P08183.
29.4

Lab note: record fold change (FC) of COc1ccc(CCN(C)CCCC(C#N)(c2ccc(OC)c(OC)c2)C(C)C)cc1OC (stereo unspecified) tested on UniProtKB P08183.
27.8

Under UniProtKB P08183: report fold change (FC) of `CC(=O)O[C@H]1CC[C@](C)(OC(C)=O)[C@]23OC(C)(C)[C@H]([C@H](OC(=O)/C=C/c4ccccc4)[C@H](OC(=O)c4ccccc4)[C@]12C)[C@H]3OC(C)=O` .
58.2

// output fold change (FC); input CC(=O)O[C@H]1CC[C@](C)(O)[C@]23OC(C)(C)[C@H]([C@H](OC(=O)/C=C/c4ccccc4)[C@H](OC(=O)c4ccccc4)[C@]12C)[C@H]3OC(=O)CCC(=O)OC1CCCCC1O (stereo partly specified) ; system UniProtKB P08183
40.3

----------
Kindly supply the reported fold change (FC) values for the records listed here.
target: ATP-dependent translocase ABCB1 (Homo sapiens); experiment: Inhibition of human MDR1 expressed in mouse NIH/3T3 cells assessed as reduction in vinblastine IC50 at 1 uM by MTT assay; format: cell-based; details: nih3t3, 1 µM
Sequence (P08183 whole entry): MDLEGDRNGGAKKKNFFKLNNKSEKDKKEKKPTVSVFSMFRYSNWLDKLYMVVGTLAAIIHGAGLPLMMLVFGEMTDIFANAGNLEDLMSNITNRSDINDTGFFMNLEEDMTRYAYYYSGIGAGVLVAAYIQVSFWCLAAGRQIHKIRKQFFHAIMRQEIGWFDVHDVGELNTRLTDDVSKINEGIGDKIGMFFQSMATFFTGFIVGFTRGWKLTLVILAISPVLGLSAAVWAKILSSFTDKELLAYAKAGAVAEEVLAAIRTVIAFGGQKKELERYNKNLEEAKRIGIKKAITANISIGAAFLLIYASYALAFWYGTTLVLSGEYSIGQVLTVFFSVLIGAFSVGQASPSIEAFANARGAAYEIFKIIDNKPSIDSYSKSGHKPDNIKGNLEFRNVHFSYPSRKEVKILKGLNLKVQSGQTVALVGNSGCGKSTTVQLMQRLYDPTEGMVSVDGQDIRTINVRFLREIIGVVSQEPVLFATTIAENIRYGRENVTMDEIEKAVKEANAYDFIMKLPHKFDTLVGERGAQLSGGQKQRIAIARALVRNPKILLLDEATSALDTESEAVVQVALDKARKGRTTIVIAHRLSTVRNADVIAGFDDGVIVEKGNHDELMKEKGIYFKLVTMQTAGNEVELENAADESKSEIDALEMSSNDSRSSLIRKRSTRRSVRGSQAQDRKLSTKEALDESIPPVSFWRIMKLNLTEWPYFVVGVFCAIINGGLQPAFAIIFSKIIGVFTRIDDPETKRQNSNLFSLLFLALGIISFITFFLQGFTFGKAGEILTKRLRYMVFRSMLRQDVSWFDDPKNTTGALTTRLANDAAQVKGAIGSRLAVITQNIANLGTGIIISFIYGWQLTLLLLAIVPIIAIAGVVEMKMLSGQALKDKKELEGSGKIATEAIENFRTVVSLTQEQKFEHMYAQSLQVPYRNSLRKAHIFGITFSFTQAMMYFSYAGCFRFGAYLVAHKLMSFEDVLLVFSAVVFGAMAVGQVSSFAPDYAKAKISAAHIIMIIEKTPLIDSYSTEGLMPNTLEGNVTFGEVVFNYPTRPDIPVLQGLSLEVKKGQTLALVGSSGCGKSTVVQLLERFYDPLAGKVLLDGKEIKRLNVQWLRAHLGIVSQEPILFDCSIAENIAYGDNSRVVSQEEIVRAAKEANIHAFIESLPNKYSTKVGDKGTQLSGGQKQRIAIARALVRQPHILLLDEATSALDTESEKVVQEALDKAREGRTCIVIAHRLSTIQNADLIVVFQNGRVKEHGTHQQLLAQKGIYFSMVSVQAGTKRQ
Reply briefly: the number, and no unit.

Provide ATP-dependent translocase ABCB1 (Homo sapiens) fold change (FC) reading for `CC(=O)O[C@H]1CC[C@](C)(O)[C@]23OC(C)(C)[C@H]([C@H](OC(=O)/C=C\c4ccccc4)[C@H](OC(=O)c4ccccc4)[C@]12C)[C@H]3OC(=O)c1ccccc1` .
15.5

Provide the reported fold change (FC) (system: ATP-dependent translocase ABCB1 (Homo sapiens)) for `CC(=O)O[C@H]1CC[C@](C)(O)[C@]23OC(C)(C)[C@H]([C@H](OC(=O)/C=C/c4ccccc4)[C@H](OC(=O)c4ccccc4)[C@]12C)[C@H]3OC(=O)c1cccnc1`
17.4

Send back ATP-dependent translocase ABCB1 (Homo sapiens) fold change (FC) of `CC(=O)O[C@H]1CC[C@](C)(O)[C@]23OC(C)(C)[C@H]([C@H](OC(=O)/C=C/c4ccccc4)[C@H](OC(=O)c4ccccc4)[C@]12C)[C@H]3OC(=O)N(C)C` only.
11.2

Give the observed fold change (FC) of `CC(=O)O[C@H]1CC[C@](C)(O)[C@]23OC(C)(C)[C@H]([C@H](OC(=O)/C=C\c4ccccc4)[C@H](OC(=O)c4ccccc4)[C@]12C)[C@H]3OC(=O)c1cnccn1` for ATP-dependent translocase ABCB1 (Homo sapiens).
5.2

Recall the reported fold change (FC) of `CC(=O)O[C@H]1CC[C@](C)(O)[C@]23OC(C)(C)[C@H]([C@H](OC(=O)/C=C/c4ccccc4)[C@H](OC(=O)c4ccccc4)[C@]12C)[C@H]3OC(=O)c1cnccn1` on ATP-dependent translocase ABCB1 (Homo sapiens) and write it down.
3.7

----------
assay: Intrinsic cytotoxicity against mouse NIH/3T3 cells transfected with human MDR1 by MTT assay; type: ADME, cell-based, NIH3T3
Readout Kind: CC50 (µM)
Express the result in µM but write the number alone.

Determine from records and report CC50 for `CC(=O)O[C@H]1CC[C@](C)(OC(=O)CNCC(C)C)[C@]23OC(C)(C)[C@H]([C@H](OC(=O)/C=C/c4ccccc4)[C@H](OC(=O)c4ccccc4)[C@]12C)[C@H]3OC(C)=O`
34.6

Look up and report measured CC50 for this entry: `CCCC(=O)O[C@@H]1[C@H]2[C@H](OC(=O)/C=C/c3ccccc3)[C@H](OC(=O)c3ccccc3)[C@]3(C)[C@@H](OC(C)=O)CC[C@](C)(O)[C@@]13OC2(C)C`
18.3

Consider the molecule `CCC(=O)O[C@@H]1[C@H]2[C@H](OC(=O)/C=C/c3ccccc3)[C@H](OC(=O)c3ccccc3)[C@]3(C)[C@@H](OC(C)=O)CC[C@](C)(O)[C@@]13OC2(C)C` and give its recorded CC50.
24.9

Give recorded CC50. `CC(=O)O[C@H]1CC[C@](C)(O)[C@]23OC(C)(C)[C@H]([C@H](OC(=O)CCc4ccccc4)[C@H](OC(=O)c4ccccc4)[C@]12C)[C@H]3O`
30.3

Provide measured CC50 value, entry: `COC(=O)CCCC(=O)O[C@@H]1[C@H]2[C@H](OC(=O)/C=C/c3ccccc3)[C@H](OC(=O)c3ccccc3)[C@]3(C)[C@@H](OC(C)=O)CC[C@](C)(O)[C@@]13OC2(C)C`
28.2

----------
experiment: Intrinsic cytotoxicity against mouse NIH/3T3 cells transfected with human MDR1 by MTT assay; assay type: ADME, cell-based, NIH3T3
What CC50 was measured for each of the following?
A number alone suffices; assume µM.

Please report CC50 for the following molecule: `CC(=O)O[C@H]1CC[C@](C)(O)[C@]23OC(C)(C)[C@H]([C@H](OC(=O)/C=C/c4ccccc4)[C@H](OC(=O)c4ccccc4)[C@]12C)[C@H]3O`
25.5

Name the recorded CC50 of the molecule listed here: CC(=O)O[C@H]1CC[C@](C)(O)[C@]23OC(C)(C)[C@H]([C@H](OC(=O)/C=C/c4ccccc4)[C@H](OC(=O)c4ccccc4)[C@]12C)[C@H]3OC(=O)CCC(=O)OC1CCCCC1O (stereo partly specified)
19.9

Please indicate CC50 recorded for `COC(=O)CCC(=O)O[C@@H]1[C@H]2[C@H](OC(=O)/C=C/c3ccccc3)[C@H](OC(=O)c3ccccc3)[C@]3(C)[C@@H](OC(C)=O)CC[C@](C)(O)[C@@]13OC2(C)C`
17.6

Let me know recorded CC50 for `CC(=O)O[C@H]1CC[C@](C)(O)[C@]23OC(C)(C)[C@H]([C@H](OC(=O)/C=C/c4ccccc4)[C@H](OC(=O)c4ccccc4)[C@]12C)[C@H]3OC(=O)CCC(=O)OCCO` , thanks.
29.2

Please give measured CC50 of the following entry: `CC(=O)O[C@H]1CC[C@](C)(OC(C)=O)[C@]23OC(C)(C)[C@H]([C@H](OC(=O)/C=C/c4ccccc4)[C@H](OC(=O)c4ccccc4)[C@]12C)[C@H]3OC(C)=O`
51.6

Let me know recorded CC50 for `CC(=O)O[C@H]1CC[C@]2(C)O[C@@H]3[C@H]4[C@H](OC(=O)/C=C/c5ccccc5)[C@H](OC(=O)c5ccccc5)[C@@]1(C)[C@]32OC4(C)C` , thanks.
27.9

For `CC(=O)O[C@H]1CC[C@](C)(O)[C@]23OC(C)(C)[C@H]([C@H](OC(=O)/C=C/c4ccccc4)[C@H](OC(=O)c4ccccc4)[C@]12C)[C@H]3OC(=O)c1cccnc1` , write its CC50.
32.6

Using the record for `CCOC(=O)CCC(=O)O[C@@H]1[C@H]2[C@H](OC(=O)/C=C/c3ccccc3)[C@H](OC(=O)c3ccccc3)[C@]3(C)[C@@H](OC(C)=O)CC[C@](C)(O)[C@@]13OC2(C)C` , state its measured CC50.
15.3

Please supply the value of reported CC50 for the item `CC(=O)O[C@H]1CC[C@](C)(Cl)[C@]23OC(C)(C)[C@H]([C@H](OC(=O)/C=C/c4ccccc4)[C@H](OC(=O)c4ccccc4)[C@]12C)[C@H]3Cl`
31.4

Tell me CC50 reported for `CC(=O)O[C@H]1CC[C@](C)(O)[C@]23OC(C)(C)[C@H]([C@H](OC(=O)/C=C/c4ccccc4)[C@H](OC(=O)c4ccccc4)[C@]12C)[C@H]3OC(C)=O`
18.3

Give reported CC50 value for `CC(=O)O[C@H]1CC[C@](C)(O)[C@]23OC(C)(C)[C@H]([C@H](OC(=O)/C=C\c4ccccc4)[C@H](OC(=O)c4ccccc4)[C@]12C)[C@H]3OC(C)=O`
22.9

----------
molecular target: ATP-dependent translocase ABCB1 (Homo sapiens); assay: Inhibition of human MDR1 expressed in mouse NIH/3T3 cells assessed as reduction in vinblastine IC50 at 1 uM by MTT assay; format: cell-based; conditions: nih3t3, 1 µM
Exercise: for every item that follows, state its recorded fold change (FC).
Reply: number alone, nothing else.

Supply fold change (FC) value. Item: `CC(=O)O[C@H]1CC[C@](C)(OC(=O)CN2CCOCC2)[C@]23OC(C)(C)[C@H]([C@H](OC(=O)/C=C/c4ccccc4)[C@H](OC(=O)c4ccccc4)[C@]12C)[C@H]3OC(C)=O`
21.1

Note down fold change (FC) recorded for COc1ccc(CCN(C)CCCC(C#N)(c2ccc(OC)c(OC)c2)C(C)C)cc1OC (stereo not drawn)
8.7

For the compound `CC(=O)O[C@H]1CC[C@](C)(O)[C@]23OC(C)(C)[C@H]([C@H](OC(=O)/C=C/c4ccccc4)[C@H](OC(=O)c4ccccc4)[C@]12C)[C@H]3O` , give its measured fold change (FC) value.
23.7

Return value of fold change (FC) for input `CC(=O)O[C@H]1CC[C@](C)(O)[C@]23OC(C)(C)[C@H]([C@H](OC(=O)/C=C/c4ccccc4)[C@H](OC(=O)c4ccccc4)[C@]12C)[C@H]3OC(=O)c1ccccc1` , no commentary.
13.9

Fill in fold change (FC) for record `CC(=O)O[C@H]1CC[C@](C)(O)[C@]23OC(C)(C)[C@H]([C@H](OC(=O)CCc4ccccc4)[C@H](OC(=O)c4ccccc4)[C@]12C)[C@H]3O`
11.1

Return the recorded fold change (FC) value; entry: `CC(=O)O[C@H]1CC[C@]2(C)O[C@@H]3[C@H]4[C@H](OC(=O)/C=C/c5ccccc5)[C@H](OC(=O)c5ccccc5)[C@@]1(C)[C@]32OC4(C)C`
15.2

Answer with reported fold change (FC) of `CC(=O)O[C@H]1CC[C@](C)(O)[C@]23OC(C)(C)[C@H]([C@H](OC(=O)/C=C/c4ccccc4)[C@H](OC(=O)c4ccccc4)[C@]12C)[C@H]3OC(=O)CCC(=O)OCCO`
6.5

Given `CCC(=O)O[C@@H]1[C@H]2[C@H](OC(=O)/C=C/c3ccccc3)[C@H](OC(=O)c3ccccc3)[C@]3(C)[C@@H](OC(C)=O)CC[C@](C)(O)[C@@]13OC2(C)C` , respond with its fold change (FC).
19.1
